Experiment: Cytotoxicity to uninfected MT-4 cells
Type: cell-based
Settings: human, 5 days incubation at 37° C., concentration at which 50% of cells were destroyed, read-out: 50% cytotoxic concentration to MT-4 cells
Observation type: CC50 at 120 h (µM)
# unit: µM | format: bare number

Query :: So what's the measured CC50 at 120 h for this one? CCCc1c(Sc2ccccc2)n(COCCO)c(=O)[nH]c1=O [compound 4, reference compound]
Result :: 282

Query :: Again, but for CCc1c(Sc2cc(C)cc(C)c2)n(COCCO)c(=O)[nH]c1=O [Compound 2]
Result :: 149

Query :: Again, but for Cc1cc(C)cc(Sc2c(C(C)C)c(=O)[nH]c(=S)n2COCCO)c1 [Compound 22]
Result :: 48

Query :: Again, but for CCc1c(Sc2ccccc2)n(COCCO)c(=O)[nH]c1=O [Compound 39]
Result :: 221

Query :: Again, but for CC(C)c1c(Sc2ccccc2)n(COCCO)c(=O)[nH]c1=O [Compound 40]
Result :: 231

Query :: Again, but for CCc1c(Sc2ccccc2)n(COCCO)c(=S)[nH]c1=O [Compound 1]
Result :: 148

Query :: Again, but for CCc1c(Cc2ccccc2)n(COCCO)c(=O)[nH]c1=O [Compound 10]
Result :: 391

Query :: Again, but for CC(C)c1c(Sc2ccccc2)n(COCCO)c(=S)[nH]c1=O [Compound 20]
Result :: 400

Query :: Again, but for CCCc1c(Sc2ccccc2)n(COCCO)c(=S)[nH]c1=O [compound 3, reference compound]
Result :: 224

Query :: Again, but for Cc1cc(C)cc(Sc2c(C(C)C)c(=O)[nH]c(=O)n2COCCO)c1 [Compound 21]
Result :: 128

Query :: Again, but for CCc1c(Sc2cc(Cl)cc(Cl)c2)n(COCCO)c(=S)[nH]c1=O [Compound 7]
Result :: 64

Query :: Again, but for CCc1c(Sc2cc(C)cc(C)c2)n(COCCO)c(=S)[nH]c1=O [Compound 3]
Result :: 227

Query :: Again, but for CCc1c(Sc2cc(Cl)cc(Cl)c2)n(COCCO)c(=O)[nH]c1=O [Compound 6]
Result :: 51

Query :: Again, but for CCc1c(Cc2cc(C)cc(C)c2)n(COCCO)c(=O)[nH]c1=O [Compound 12]
Result :: 280

Query :: Again, but for Cc1cc(C)cc(Cc2c(C(C)C)c(=O)[nH]c(=O)n2COCCO)c1 [Compound 31]
Result :: 318
